# Subject of test: T1, Human plasmin (human, UniProt P00747 97-810, limits assumed)
# T1 construct: Bought enzyme
# Assay procedure: plasmin inhibition assay, residual amidolytic activity on S-2251, quadratic binding fit
# Experimental: Plasmin Inhibition Assays. […] The chromogenic substrate S-2251 was then added, and residual amidolytic activity was measured in a Molecular Devices UVmax kinetic microplate reader at different end points (0.5 and 1 hr) and S2251 (0.5 and 1 mM) concentrations. Plasmin inhibitory data were analyzed according to the quadratic binding expression. The incubation time was 1 hr at 37° C. and substrate concentration was 1 mM for the remaining activity measurements.
Recorded metric: pKd
Numbers only, as −log10 of the molar value.

Query: Identify the reported pKd for the following entry. Wild type first Kunitz-type proteinase inhibitor domain of human TFPI-2 (KD1) (other, also called WTKD1; WT KD1) DAAQEPTGNNAEICLLPLDYGPCRALLLRYYYDRYTQSCRQFLYGGCEGNANNFYTWEACDDACWRIEKVPKV
Response: 7.66
